Numbers sourced from patent EP4786492A1.

experimentalTarget: DLL3 endogenously expressed on NCI-H82 cells (UniProt Q9NYJ7)
Sequence (Q9NYJ7 27-618): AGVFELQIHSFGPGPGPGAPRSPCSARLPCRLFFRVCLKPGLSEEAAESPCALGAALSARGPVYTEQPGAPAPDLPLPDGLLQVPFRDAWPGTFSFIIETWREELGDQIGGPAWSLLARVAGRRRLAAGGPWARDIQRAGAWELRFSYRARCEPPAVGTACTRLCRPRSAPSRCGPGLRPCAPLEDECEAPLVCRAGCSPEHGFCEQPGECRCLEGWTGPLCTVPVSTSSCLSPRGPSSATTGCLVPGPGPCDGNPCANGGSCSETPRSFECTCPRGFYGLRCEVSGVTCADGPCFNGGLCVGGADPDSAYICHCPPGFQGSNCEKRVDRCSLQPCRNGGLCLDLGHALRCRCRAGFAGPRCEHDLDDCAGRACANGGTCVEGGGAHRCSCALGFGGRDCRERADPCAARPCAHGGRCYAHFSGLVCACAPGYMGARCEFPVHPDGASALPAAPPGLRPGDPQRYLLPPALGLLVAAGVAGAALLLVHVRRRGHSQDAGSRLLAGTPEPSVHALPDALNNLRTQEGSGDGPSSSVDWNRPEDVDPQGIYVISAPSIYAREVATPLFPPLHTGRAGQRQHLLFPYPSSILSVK
testDescription: FACS on NCI-H82 cells; antibody 20 nM
endpointLabel: MFI

binder="mab008 scFv-hFc (Fc fusion, part only; not given: linker and human IgG1 Fc, not shown: a dimerising Fc or GST) chain, part: DIVMTQSQKFMSTSVGDRVSITCKASQNVGTAVAWYQQKPGQSPKLLIFSASIRYTGVPDRFTGSGSGTDFTLTISNMQSEDLADYFCQQYSSSPYTFGGGTKLEIKEVQLQQSGPVLVKPGASVKMSCKASGYTFTDYYMNWVKRSHGKSLEWIGIINPYNGGTSYNQKFRGKATLTVDKSSNTAYMELNSLTSEDSAVYYCSRYDYDYDVEGAMDYWGQGTSVTVSS" recordedvalue=438
binder="Hab009VL3aVH1-hFc (scFv, part only; not given: VL-VH linker and human IgG1 Fc, V domains shown, not shown: another chain or arm of the molecule; a dimerising Fc or GST; small tags and cut ends) VL: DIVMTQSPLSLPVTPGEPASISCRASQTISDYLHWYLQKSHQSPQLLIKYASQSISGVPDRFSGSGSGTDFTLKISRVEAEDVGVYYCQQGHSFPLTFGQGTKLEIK VH: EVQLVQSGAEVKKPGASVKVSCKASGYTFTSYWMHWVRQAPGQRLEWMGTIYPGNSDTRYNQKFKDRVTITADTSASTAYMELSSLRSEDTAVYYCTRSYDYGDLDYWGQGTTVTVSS" recordedvalue=796
binder="Hab013VL2VH2a-hFc (scFv, part only; not given: scFv linker and human IgG1 Fc, V domains shown, not shown: another chain or arm of the molecule; a dimerising Fc or GST; small tags and cut ends) VL: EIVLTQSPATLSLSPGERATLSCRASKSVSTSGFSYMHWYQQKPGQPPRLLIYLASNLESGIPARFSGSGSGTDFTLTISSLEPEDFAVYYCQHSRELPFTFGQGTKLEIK VH: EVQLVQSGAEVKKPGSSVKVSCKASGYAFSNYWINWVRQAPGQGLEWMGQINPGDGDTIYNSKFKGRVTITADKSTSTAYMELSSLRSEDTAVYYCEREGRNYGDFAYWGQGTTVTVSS" recordedvalue=1170
binder="Hab015VL4VH1b-hFc (scFv, part only; not given: VL-VH linker and human IgG1 Fc, V domains shown, not shown: another chain or arm of the molecule; a dimerising Fc or GST; small tags and cut ends) VL: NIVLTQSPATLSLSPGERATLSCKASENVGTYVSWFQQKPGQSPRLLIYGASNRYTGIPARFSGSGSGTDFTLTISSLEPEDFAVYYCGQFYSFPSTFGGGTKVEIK VH: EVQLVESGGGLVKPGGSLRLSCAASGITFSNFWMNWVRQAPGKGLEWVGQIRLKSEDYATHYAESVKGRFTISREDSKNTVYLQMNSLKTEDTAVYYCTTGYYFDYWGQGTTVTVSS" recordedvalue=1130
binder="Hab006VL1VH4-hFc (scFv, part only; not given: VL-VH linker and human IgG1 Fc, V domains shown, not shown: another chain or arm of the molecule; a dimerising Fc or GST; small tags and cut ends) VL: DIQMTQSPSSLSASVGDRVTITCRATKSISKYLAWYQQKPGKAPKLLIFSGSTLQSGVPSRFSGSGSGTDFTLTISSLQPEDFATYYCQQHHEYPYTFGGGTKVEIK VH: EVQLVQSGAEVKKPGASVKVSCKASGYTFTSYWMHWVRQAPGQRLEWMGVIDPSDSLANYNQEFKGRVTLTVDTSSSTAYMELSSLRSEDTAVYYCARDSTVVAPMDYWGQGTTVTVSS" recordedvalue=519
